Test system: U2OS
Measurement protocol: Multiplex assay against U2OS
Assay type: toxicity, cell-based
Test settings: human, 12 h, 10 µM, compound concentration 10 uM, replicate 2
Reported endpoint: Total Cell Count

[[record]]
compound = "Cc1nc(N2CC[C@H](O)C2)ncc1-c1cc(C(F)(F)F)cc2[nH]ncc12"
reported_measurement = 153

[[record]]
compound = "Cc1cc(NC(=O)c2cccc(S(F)(F)(F)(F)F)c2)cc(-n2ccn3nc(-c4cccnc4)cc23)c1"
reported_measurement = 185

[[record]]
compound = "Cc1ccc(C)c(Oc2ccncc2C(=O)N2CCN(C3CC3)c3ccccc32)c1"
reported_measurement = 59

[[record]]
compound = "Cc1c[nH]c2nccc(Oc3c(F)cc(Nc4cc(Cl)nc(N)n4)cc3F)c12"
reported_measurement = 62

[[record]]
compound = "C[C@]12CC[C@@H]3c4ccc(O)cc4CC[C@H]3[C@@H]1CC[C@@H]2O"
reported_measurement = 76

[[record]]
compound = "CC1=C(C(=O)Nc2cc3cn[nH]c3cc2F)C(c2ccc(C(F)(F)F)cc2)CC(=O)N1 (centres undefined)"
reported_measurement = 97

[[record]]
compound = "Cc1ccccc1C(c1ccccc1C)N1C2CCC1CC(O)(c1ccccc1)C2 (centres undefined)"
reported_measurement = 71

[[record]]
compound = "CC(C)CC(=O)Nc1[nH]nc2c1CN(C(=O)C1CCN(C)CC1)C2(C)C"
reported_measurement = 136

[[record]]
compound = "Cl.O=C(O)c1cc(-c2ccc(C3CCNCC3)cc2)c2ccc(-c3ccc(C(F)(F)F)cc3)cc2c1"
reported_measurement = 38


---

Test system: Fibroblast
Measurement protocol: Incucyte cell viability with human fibroblast; note: filed as whole numbers so only -1 and 0 and 1 occur
Format: toxicity, cell-based
Test settings: 24 h, 10 µM, compound concentration 10 uM, replicate number 1, timepoint 24 hours
The following compounds are shown together with reported Growth Rate values.
Reported endpoint: Growth Rate

[[record]]
compound = "C[C@H](c1ccc(F)cc1)N(Cc1cccc(C(=O)O)c1)C(=O)c1cnc2ccccc2c1"
reported_endpoint = "Growth Rate"
reported_measurement = 1

[[record]]
compound = "O=C(Cc1ccccc1)Nc1nc2ccc(Cl)cc2c2nc(-c3ccco3)nn12"
reported_endpoint = "Growth Rate"
reported_measurement = 0

[[record]]
compound = "O=C(Nc1ccc(Oc2ccc(F)cc2)cc1)N1CCc2ncccc2[C@H]1c1ccc(F)cc1"
reported_endpoint = "Growth Rate"
reported_measurement = 1

[[record]]
compound = "Cl.Clc1ccc(CCCOCCCN2CCCCC2)cc1 [PITOLISANT HYDROCHLORIDE]"
reported_endpoint = "Growth Rate"
reported_measurement = 1

[[record]]
compound = "CC(C)CC(=O)Nc1[nH]nc2c1CN(C(=O)C1CCN(C)CC1)C2(C)C"
reported_endpoint = "Growth Rate"
reported_measurement = 0

[[record]]
compound = "C=CC(=O)Nc1ccc2[nH]c(=O)n(C3CCN(Cc4ccc(-c5nc6cc[nH]c(=O)c6cc5-c5ccccc5)cc4)CC3)c2c1"
reported_endpoint = "Growth Rate"
reported_measurement = 1

[[record]]
compound = "CC(C)Oc1ccccc1C(=O)Nc1ccccc1C(=O)Nc1cccc(S(=O)(=O)C(F)(F)F)c1"
reported_endpoint = "Growth Rate"
reported_measurement = 1

[[record]]
compound = "O[C@H]1CC[C@H](Nc2ncc3nc(Nc4c(F)cc(F)cc4F)n([C@H]4CCOC4)c3n2)CC1"
reported_endpoint = "Growth Rate"
reported_measurement = 1

[[record]]
compound = "COc1cc(C(=O)NS(=O)(=O)c2ccccc2C)ccc1Cc1cn(C)c2ccc(NC(=O)OC3CCCC3)cc12"
reported_endpoint = "Growth Rate"
reported_measurement = 0

[[record]]
compound = "C=CC(=O)Nc1cccc(Oc2nc(Nc3ccc(N4CCN(C)CC4)cc3OC)ncc2Cl)c1"
reported_endpoint = "Growth Rate"
reported_measurement = 0

[[record]]
compound = "O=c1[nH]c2ccccc2n1C1CCN(Cc2ccc(-c3[nH]c4cc5ncnc5cc4nc3-c3ccccc3)cc2)CC1"
reported_endpoint = "Growth Rate"
reported_measurement = 0

[[record]]
compound = "C[C@H](N)COC(=O)[C@@H](CCCCN)NC(=O)Cc1c(-c2ccc3ccccc3c2)[nH]c2c1ccc1ccccc12"
reported_endpoint = "Growth Rate"
reported_measurement = 0

[[record]]
compound = "Cc1nc(N2CC[C@H](O)C2)ncc1-c1cc(C(F)(F)F)cc2[nH]ncc12"
reported_endpoint = "Growth Rate"
reported_measurement = 0

[[record]]
compound = "CNC(=O)c1ccc(Nc2ncc(C(F)(F)F)c(NCc3nccnc3N(C)S(C)(=O)=O)n2)cc1"
reported_endpoint = "Growth Rate"
reported_measurement = 0

[[record]]
compound = "CCCOc1ccc([C@H]2[C@H](C(=O)O)[C@@H](c3ccc4c(c3)OCO4)CN2CC(=O)Nc2c(CC)cccc2CC)cc1"
reported_endpoint = "Growth Rate"
reported_measurement = 1

[[record]]
compound = "COc1ccc(S(=O)(=O)c2cc(OC)ccc2S(=O)(=O)c2ccc([C@H](C)NS(C)(=O)=O)cc2)cc1"
reported_endpoint = "Growth Rate"
reported_measurement = 1

[[record]]
compound = "COc1ccc(-c2ccc3cc(C(=O)O)ccc3c2)cc1C12CC3CC(CC(C3)C1)C2"
reported_endpoint = "Growth Rate"
reported_measurement = 0

[[record]]
compound = "Cc1cc(NC(=O)c2cccc(S(F)(F)(F)(F)F)c2)cc(-n2ccn3nc(-c4cccnc4)cc23)c1"
reported_endpoint = "Growth Rate"
reported_measurement = 0

[[record]]
compound = "Cc1ccc2c(c1)c1c(n2CCc2ccc(C)nc2)CCN(C)C1 [LATREPIRDINE]"
reported_endpoint = "Growth Rate"
reported_measurement = 0

[[record]]
compound = "C#Cc1cccc(Nc2ncnc3cc(OCCOC)c(OCCOC)cc23)c1"
reported_endpoint = "Growth Rate"
reported_measurement = 0

[[record]]
compound = "CC(C)(C)NC[C@H](O)COc1nsnc1N1CCOCC1"
reported_endpoint = "Growth Rate"
reported_measurement = 1

[[record]]
compound = "CNC(=O)Nc1ccc2c(c1)[C@@]1(CC2)OC(=O)N(CC(=O)N(Cc2ccc(F)cc2)[C@@H](C)C(F)(F)F)C1=O"
reported_endpoint = "Growth Rate"
reported_measurement = 0

[[record]]
compound = "CO[C@@H](C)c1c(Nc2ccc([C@H](N(C)C(=O)C3CCS(=O)(=O)CC3)C(F)(F)F)cc2)cnc2cc(Cl)nn12"
reported_endpoint = "Growth Rate"
reported_measurement = 0

[[record]]
compound = "O=C(O)CC/C=C\\C[C@@H]1CO[C@H](c2ccccc2Cl)O[C@@H]1c1ccccc1O"
reported_endpoint = "Growth Rate"
reported_measurement = 1

[[record]]
compound = "CC(C)c1noc(N2CCC(COc3ccc(-c4ccc(S(C)(=O)=O)cc4)nc3)CC2)n1"
reported_endpoint = "Growth Rate"
reported_measurement = 0

[[record]]
compound = "COc1ccccc1CN[C@H]1C2CCN(CC2)[C@H]1C(c1ccccc1)c1ccccc1"
reported_endpoint = "Growth Rate"
reported_measurement = 1

[[record]]
compound = "O=C(c1cc2c(cc1F)OC(c1ccc(F)cc1)(c1ccc(Cl)cc1Cl)O2)N1CCOCC1 (centres undefined)"
reported_endpoint = "Growth Rate"
reported_measurement = 1

[[record]]
compound = "CC1(C)CCC(C)(C)c2cc(C(=O)Nc3ccc(C(=O)O)cc3)ccc21"
reported_endpoint = "Growth Rate"
reported_measurement = 1

[[record]]
compound = "CN1CCN(Cc2ccc(Nc3ncc(Cl)c(Nc4ccccc4S(=O)(=O)N(C)C)n3)cc2)CC1"
reported_endpoint = "Growth Rate"
reported_measurement = 0

[[record]]
compound = "COCCOc1nc(-c2ccc(Cl)nc2)nc2c1CN(C(=O)c1ncn3ccccc13)CC2"
reported_endpoint = "Growth Rate"
reported_measurement = 1

[[record]]
compound = "Cc1csc(NC(=O)c2cc(F)cc(Oc3cncnc3)c2)n1"
reported_endpoint = "Growth Rate"
reported_measurement = 1

[[record]]
compound = "O=C(NCC(=O)N1CCCC1)Nc1ccc2cnccc2c1"
reported_endpoint = "Growth Rate"
reported_measurement = 0

[[record]]
compound = "CNC(=O)Nc1ccc(-c2nc(N3CC4CCC(C3)O4)c3cnn(C4CCC5(CC4)OCCO5)c3n2)cc1"
reported_endpoint = "Growth Rate"
reported_measurement = 0

[[record]]
compound = "O=C(O)Cn1c(C(=O)Nc2nc(-c3ccccc3Cl)cs2)cc2ccccc21"
reported_endpoint = "Growth Rate"
reported_measurement = 0

